- Protocol Description: Selectivity index, ratio of IC50 for african green monkey Vero cells to IC50 for Trypanosoma cruzi tulahuen C4
- Condition Details: vero
Readout Type: selectivity ratio

Compound | Meas Value
CC1CS(=O)(=O)CCN1/N=C/c1ccc([N+](=O)[O-])o1 (stereo unspecified) [NIFURTIMOX] | 20.8

* * *

- System: DU-145
- Protocol Description: Cytotoxicity against human DU145 cells
- Assay type: functional
// classify: if (GI50 < 20 µM) MET else NOT MET

Compound | Class
C(=N\Nc1ncnc2sc3c(c12)CCCC3)/c1ccco1 | MET
COc1ccc(/C=N/Nc2ncnc3sc4c(c23)CCCC4)cc1 | NOT MET
Cc1ccc(/C=N/Nc2ncnc3sc4c(c23)CCCC4)cc1 | NOT MET
C(=N\Nc1ncnc2sc3c(c12)CCCC3)/c1ccncc1 | NOT MET
CCC(CC)=NNc1ncnc2sc3c(c12)CCCC3 | MET
FC(F)(F)c1ccc(/C=N/Nc2ncnc3sc4c(c23)CCCC4)cc1 | MET
Brc1ccccc1/C=N/Nc1ncnc2sc3c(c12)CCCC3 | MET
N#Cc1ccc(/C=N/Nc2ncnc3sc4c(c23)CCCC4)cc1 | NOT MET
C(=N\Nc1ncnc2sc3c(c12)CCCC3)/c1ccc2ccccc2c1 | NOT MET
C(=N\Nc1ncnc2sc3c(c12)CCCC3)/c1ccccn1 | MET
C/C(=N/Nc1ncnc2sc3c(c12)CCCC3)c1ccccc1 | MET
CC(C)c1ccc(/C=N/Nc2ncnc3sc4c(c23)CCCC4)cc1 | MET
C(=N\Nc1ncnc2sc3c(c12)CCCC3)/c1cccc2ccccc12 | NOT MET
NNc1ncnc2sc3c(c12)CCCC3 | MET
O=[N+]([O-])c1ccccc1/C=N/Nc1ncnc2sc3c(c12)CCCC3 | NOT MET
COc1cc(/C=N/Nc2ncnc3sc4c(c23)CCCC4)cc(OC)c1OC | NOT MET
O=c1[nH]cc(F)c(=O)[nH]1 [FLUOROURACIL] | MET
CCc1ccc(/C=N/Nc2ncnc3sc4c(c23)CCCC4)cc1 | NOT MET
COc1cccc(/C=N/Nc2ncnc3sc4c(c23)CCCC4)c1 | MET
Fc1ccccc1/C=N/Nc1ncnc2sc3c(c12)CCCC3 | NOT MET
C(=N\Nc1ncnc2sc3c(c12)CCCC3)/c1ccc[nH]1 | MET
c1ccc(C(=NNc2ncnc3sc4c(c23)CCCC4)c2ccccc2)cc1 | NOT MET
C=CCOc1cc(/C=N/Nc2ncnc3sc4c(c23)CCCC4)cc(OCC=C)c1Br | MET

* * *

- Test system: Trypanosoma cruzi
- Protocol Description: Antitrypanosomal activity against Trypanosoma cruzi tulahuen C4 trypomastigotes infected in african green monkey Vero cells assessed as CPRG cleavage after 120 hrs by microplate reader
- Assay type: functional, organism-based
pIC50: −log10 of the molar value.

Compound | Qualifier | pIC50
COc1ccc(/C=N/Nc2ncnc3sc4c(c23)CCCC4)cc1 | = | 4.80
FC(F)(F)c1ccc(/C=N/Nc2ncnc3sc4c(c23)CCCC4)cc1 | = | 4.98
COc1ccc(/C=N/Nc2ncnc3sc4c(c23)CCCC4)c(OC)c1 | = | 4.73
O=[N+]([O-])c1ccccc1/C=N/Nc1ncnc2sc3c(c12)CCCC3 | < | 4.60
Cc1ccc(/C=N/Nc2ncnc3sc4c(c23)CCCC4)cc1 | < | 4.60
C/C(=N/Nc1ncnc2sc3c(c12)CCCC3)c1ccccc1 | = | 4.86
CC(C)=NNc1ncnc2sc3c(c12)CCCC3 | = | 4.85
C(=N\Nc1ncnc2sc3c(c12)CCCC3)/c1ccc2ccccc2c1 | = | 4.88
C(=N\Nc1ncnc2sc3c(c12)CCCC3)/c1ccc2c(c1)OCO2 | = | 4.64
C(=N\Nc1ncnc2sc3c(c12)CCCC3)/c1cccc2ccccc12 | = | 4.89
C(=N\Nc1ncnc2sc3c(c12)CCCC3)/c1ccco1 | = | 4.79
N#Cc1ccc(/C=N/Nc2ncnc3sc4c(c23)CCCC4)cc1 | < | 4.60
Fc1ccccc1/C=N/Nc1ncnc2sc3c(c12)CCCC3 | = | 4.97
C(=C\c1ccccc1)/C=N/Nc1ncnc2sc3c(c12)CCCC3 | = | 5.85
COc1cc(/C=N/Nc2ncnc3sc4c(c23)CCCC4)cc(OC)c1OC | < | 4.60
CC(C)(C)/C=N/Nc1ncnc2sc3c(c12)CCCC3 | < | 4.60
Fc1ccc(/C=N/Nc2ncnc3sc4c(c23)CCCC4)cc1 | = | 4.74
CC1CS(=O)(=O)CCN1/N=C/c1ccc([N+](=O)[O-])o1 (stereo not drawn) [NIFURTIMOX] | = | 5.35
CCc1ccc(/C=N/Nc2ncnc3sc4c(c23)CCCC4)cc1 | < | 4.60
Brc1ccccc1/C=N/Nc1ncnc2sc3c(c12)CCCC3 | = | 5.03
CC(C)c1ccc(/C=N/Nc2ncnc3sc4c(c23)CCCC4)cc1 | = | 5.28
Brc1ccc(/C=N/Nc2ncnc3sc4c(c23)CCCC4)cc1 | = | 4.69
C(=N\Nc1ncnc2sc3c(c12)CCCC3)/c1ccccc1 | = | 4.84
Clc1ccc(/C=N/Nc2ncnc3sc4c(c23)CCCC4)cc1 | = | 4.88
O=[N+]([O-])c1ccc(/C=N/Nc2ncnc3sc4c(c23)CCCC4)cc1 | < | 4.60
Oc1ccc(/C=N/Nc2ncnc3sc4c(c23)CCCC4)cc1 | = | 4.95
COc1cccc(/C=N/Nc2ncnc3sc4c(c23)CCCC4)c1 | = | 4.77
CC(C)(C)c1ccc(/C=N/Nc2ncnc3sc4c(c23)CCCC4)cc1 | = | 4.95
FC(F)(F)c1ccccc1/C=N/Nc1ncnc2sc3c(c12)CCCC3 | = | 4.86
C(=N\Nc1ncnc2sc3c(c12)CCCC3)/c1ccc[nH]1 | = | 4.64
CCC(CC)=NNc1ncnc2sc3c(c12)CCCC3 | = | 4.68
C(=N\Nc1ncnc2sc3c(c12)CCCC3)/c1ccccn1 | = | 5.41
c1ccc(C(=NNc2ncnc3sc4c(c23)CCCC4)c2ccccc2)cc1 | < | 4.60
C(=N\Nc1ncnc2sc3c(c12)CCCC3)/c1ccncc1 | < | 4.60
Clc1ccccc1/C=N/Nc1ncnc2sc3c(c12)CCCC3 | = | 4.67
COc1cc(/C=N/Nc2ncnc3sc4c(c23)CCCC4)cc(OC)c1O | < | 4.60
NNc1ncnc2sc3c(c12)CCCC3 | = | 4.67
C=CCOc1cc(/C=N/Nc2ncnc3sc4c(c23)CCCC4)cc(OCC=C)c1Br | = | 4.81

* * *

- Protocol Description: Selectivity index, ratio of IC50 for african green monkey Vero cells to IC50 for Trypanosoma cruzi tulahuen C4
- Condition Details: Vero cells

Line Notation | selectivity ratio
NNc1ncnc2sc3c(c12)CCCC3 | 1.9
FC(F)(F)c1ccc(/C=N/Nc2ncnc3sc4c(c23)CCCC4)cc1 | 0.8
Clc1ccccc1/C=N/Nc1ncnc2sc3c(c12)CCCC3 | 0.7
Fc1ccc(/C=N/Nc2ncnc3sc4c(c23)CCCC4)cc1 | 1
C=CCOc1cc(/C=N/Nc2ncnc3sc4c(c23)CCCC4)cc(OCC=C)c1Br | 0.4
COc1ccc(/C=N/Nc2ncnc3sc4c(c23)CCCC4)c(OC)c1 | 1.8

* * *

- Test system: Leishmania peruviana
- Protocol Description: Antileishmanial activity against Leishmania peruviana MHOM/PE/LCA08 promastigote infected BALB/c mouse macrophages after 48 hrs by Giemsa staining method
- Assay type: functional, organism-based
- Condition Details: MHOM/PE/LCA08, 48 h
pIC50: −log10 of the molar value.
molecules and their reported pIC50
Readout Type: pIC50

Line Notation | Readout Type | Qualifier | Meas Value
C(=N\Nc1ncnc2sc3c(c12)CCCC3)/c1ccccn1 | pIC50 | = | 6.15
CCC(CC)=NNc1ncnc2sc3c(c12)CCCC3 | pIC50 | = | 5.15
Clc1ccc(/C=N/Nc2ncnc3sc4c(c23)CCCC4)cc1 | pIC50 | < | 4.52
Brc1ccc(/C=N/Nc2ncnc3sc4c(c23)CCCC4)cc1 | pIC50 | < | 5.70
CCc1ccc(/C=N/Nc2ncnc3sc4c(c23)CCCC4)cc1 | pIC50 | = | 5.02

* * *

- Protocol Description: Selectivity index, ratio of IC50 for BALB/c mouse macrophages to IC50 for Leishmania amazonensis MHOM/BR/76/LTB-012

Compound | Ratio IC50
C(=N\Nc1ncnc2sc3c(c12)CCCC3)/c1ccc2ccccc2c1 | 0.4
C(=N\Nc1ncnc2sc3c(c12)CCCC3)/c1ccc[nH]1 | 1
Fc1ccc(/C=N/Nc2ncnc3sc4c(c23)CCCC4)cc1 | 1
NNc1ncnc2sc3c(c12)CCCC3 | 0.6
C(=N\Nc1ncnc2sc3c(c12)CCCC3)/c1ccncc1 | 0.7
Fc1ccccc1/C=N/Nc1ncnc2sc3c(c12)CCCC3 | 3.1
CCc1ccc(/C=N/Nc2ncnc3sc4c(c23)CCCC4)cc1 | 9.6
CC(C)(C)c1ccc(/C=N/Nc2ncnc3sc4c(c23)CCCC4)cc1 | 3.8
COc1ccc(/C=N/Nc2ncnc3sc4c(c23)CCCC4)cc1 | 1.3
Brc1ccc(/C=N/Nc2ncnc3sc4c(c23)CCCC4)cc1 | 8.8
Clc1ccc(/C=N/Nc2ncnc3sc4c(c23)CCCC4)cc1 | 85.2
C(=N\Nc1ncnc2sc3c(c12)CCCC3)/c1ccco1 | 0.6
C/C(=N/Nc1ncnc2sc3c(c12)CCCC3)c1ccccc1 | 5.6
COc1cc(/C=N/Nc2ncnc3sc4c(c23)CCCC4)cc(OC)c1OC | 1.2
C[C@@H]1[C@H](O)[C@@H](C)/C=C/C=C/C=C/C=C/C=C/C=C/C=C/[C@H](O[C@@H]2O[C@H](C)[C@@H](O)[C@H](N)[C@@H]2O)C[C@@H]2O[C@](O)(C[C@@H](O)C[C@@H](O)[C@H](O)CC[C@@H](O)C[C@@H](O)CC(=O)O[C@H]1C)C[C@H](O)[C@H]2C(=O)O [AMPHOTERICIN B] | 54
CC(C)=NNc1ncnc2sc3c(c12)CCCC3 | 5.9
C(=N\Nc1ncnc2sc3c(c12)CCCC3)/c1ccccn1 | 13
Brc1ccccc1/C=N/Nc1ncnc2sc3c(c12)CCCC3 | 5.8
C(=N\Nc1ncnc2sc3c(c12)CCCC3)/c1cccc2ccccc12 | 1.3
COc1cc(/C=N/Nc2ncnc3sc4c(c23)CCCC4)cc(OC)c1O | 3
Cc1ccc(/C=N/Nc2ncnc3sc4c(c23)CCCC4)cc1 | 0.5
